quantity.name: melting point

melting point for Cl.NCC1CCn2c(=O)[nH]c(=O)c3cccc1c32 (stereo not drawn) is 190 °C (dec.)

melting point for CN(C)c1ccc(C(=O)NCC2Cc3cccc4c(=O)[nH]c(=O)n(c34)C2)cc1 (stereo not drawn) [Example 29] is 268 to 278 °C (dec.)

melting point for O=C(Cc1ccccc1)NCC1Cc2cccc3c(=O)[nH]c(=O)n(c23)C1 (stereo not drawn) [Example 26] is 275 °C (dec.)

melting point for O=C(NCC1Cc2cccc3c(=O)[nH]c(=O)n(c23)C1)c1ccccn1 (stereo not drawn) [Example 24] is 247 to 250 °C

melting point for O=c1[nH]c(=O)n2c3c(cccc13)C(CO)CC2 (stereo not drawn) [Example 6] is 226 °C (dec.)

melting point for CN(C)c1cccc(C(=O)NCC2Cc3cccc4c(=O)[nH]c(=O)n(c34)C2)c1 (stereo not drawn) [Example 28] is 158 to 170 °C

melting point for O=c1[nH]c(=O)n2c3c(cccc13)CC(CBr)C2 (stereo not drawn) [Example 9] is 267 to 270 °C (dec.)

melting point for O=c1[nH]c(=O)n2c3c(cccc13)C(O)C2 (stereo not drawn) [Example 46] is 260 to 266 °C (dec.)

melting point for O=C(NCC1Cc2cccc3c(=O)[nH]c(=O)n(c23)C1)c1ccnnc1 (stereo not drawn) [Example 32] is 279 to 281 °C (dec.)

melting point for O=c1[nH]c(=O)n2c3c(cccc13)CC2CO (stereo not drawn) [Example 4] is 238 to 240 °C

melting point for O=c1[nH]c(=O)n2c3c(cccc13)CC2 [Example 1] is 314 to 315 °C

melting point for O=C(NCC1Cc2cccc3c(=O)[nH]c(=O)n(c23)C1)C1CCN(Cc2ccccc2)CC1 (stereo not drawn) [Example 35] is 240 to 242 °C (dec.)

melting point for O=c1[nH]c(=O)n2c3c(cccc13)CCC2CO (stereo not drawn) [Example 3] is 205 to 207 °C

melting point for O=C(NCC1Cc2cccc3c(=O)[nH]c(=O)n(c23)C1)C1CCCCC1 (stereo not drawn) [Example 30] is 280 to 281 °C (dec.)

melting point for Cl.NCCC(=O)NCC1Cc2cccc3c(=O)[nH]c(=O)n1c23 (stereo not drawn) is 290 to 296 °C (dec.)
